Target: T1, 4Ig-B7H3 (human, UniProt Q5ZPR3 27-461, limits assumed)
T1 construct: also called 4Ig-B73H3
T1 sequence (looked up): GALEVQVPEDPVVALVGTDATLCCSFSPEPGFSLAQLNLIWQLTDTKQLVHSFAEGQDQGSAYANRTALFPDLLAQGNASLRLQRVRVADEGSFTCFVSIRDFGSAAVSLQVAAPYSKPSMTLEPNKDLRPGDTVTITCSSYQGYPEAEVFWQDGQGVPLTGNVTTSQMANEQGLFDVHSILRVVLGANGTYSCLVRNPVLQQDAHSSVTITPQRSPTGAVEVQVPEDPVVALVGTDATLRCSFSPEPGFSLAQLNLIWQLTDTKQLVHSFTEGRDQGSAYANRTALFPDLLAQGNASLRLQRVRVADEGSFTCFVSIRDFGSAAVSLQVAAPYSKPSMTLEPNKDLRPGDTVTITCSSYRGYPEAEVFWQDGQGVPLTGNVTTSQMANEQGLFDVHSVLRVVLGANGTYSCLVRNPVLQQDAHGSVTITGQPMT
Assay: SPR, IgG on 4Ig-B7-H3 without Fc fusion
Below, each of the binders is paired with its reported koff value.

# example entries with known answers
1. mouse/human chimeric 8H9 (ch8H9) IgG1 (antibody, V domains shown) VH: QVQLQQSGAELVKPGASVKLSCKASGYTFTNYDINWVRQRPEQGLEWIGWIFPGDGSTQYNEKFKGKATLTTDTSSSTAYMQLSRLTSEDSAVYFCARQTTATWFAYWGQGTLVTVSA VL: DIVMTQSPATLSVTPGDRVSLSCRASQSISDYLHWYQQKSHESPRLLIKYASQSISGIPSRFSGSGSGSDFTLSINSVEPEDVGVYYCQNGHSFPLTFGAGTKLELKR
0.000218 s⁻¹
2. murine 8H9 (m8H9) IgG1 monoclonal antibody (antibody, V domains shown, 131I-labelled in the LAN-1 immunoreactivity assay; the label is not carried by the letters., also called MAb 8H9) VH: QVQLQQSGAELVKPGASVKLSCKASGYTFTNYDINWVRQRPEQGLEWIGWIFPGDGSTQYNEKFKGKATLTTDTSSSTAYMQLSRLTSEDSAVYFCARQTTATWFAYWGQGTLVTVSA VL: DIVMTQSPATLSVTPGDRVSLSCRASQSISDYLHWYQQKSHESPRLLIKYASQSISGIPSRFSGSGSGSDFTLSINSVEPEDVGVYYCQNGHSFPLTFGAGTKLELK
0.000165 s⁻¹
3. ch8H9 6.1 IgG (ch8H9 + 6 affinity maturation mutations) (antibody, V domains shown) VH: QVQLQQSGAELVKPGASVKLSCKTSGYTFTNYDINWVRQRPGQGLEWIGWIFPGDDSTQYNEKFKGKATLTTDTSSSTAYMQLSRLTSEDSAVYFCARQTTGTWFAYWGQGTLVTVSA VL: DIVMTQSPATLSVTPGDRVTLSCRASQSISDYLYWYQQKSHESPRLLIKYASQSISGIPSRFSGSGSGSDFTLSINSVEPEDVGVYYCQNGHSFPLTFGAGTKLELKR
0.000123 s⁻¹

Query: Please supply the value of reported koff for the item hu8H9 3.1 IgG1 (antibody, V domains shown, also called clone 3.1) VH: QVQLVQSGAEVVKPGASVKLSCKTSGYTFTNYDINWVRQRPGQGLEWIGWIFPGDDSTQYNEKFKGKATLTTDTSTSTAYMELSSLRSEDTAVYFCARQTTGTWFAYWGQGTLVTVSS VL: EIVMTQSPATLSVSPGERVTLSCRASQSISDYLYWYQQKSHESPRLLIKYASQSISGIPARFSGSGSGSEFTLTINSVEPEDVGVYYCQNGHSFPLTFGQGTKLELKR
Response: 0.000298 s⁻¹
